Numbers sourced from patent US20260226068A1.

# System: IL-17A/A (Homo sapiens)
# Sequence (Q16552 24-155): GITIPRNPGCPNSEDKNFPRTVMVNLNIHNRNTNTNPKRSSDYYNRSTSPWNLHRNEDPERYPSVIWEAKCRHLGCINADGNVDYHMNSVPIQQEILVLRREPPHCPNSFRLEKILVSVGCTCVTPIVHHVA
# Protocol summary: IL-17A/A HEK-Blue cell assay (SEAP reporter)
# Condition context: HEK-Blue IL-17A reporter cells, IL17A/A 5 ng/mL, 20 hours, SEAP read at A630; read-out: HEK-Blue IL17AA (IC50 for IL-17A/A inhibition)

Molecule	IC50
O=C(N[C@H](c1cn2nc(CC3C[C@@H](C(F)(F)F)CNC3=O)cnc2n1)C1CCC(F)(F)CC1)c1nonc1C1CC1 (stereo partly drawn)	< 100 nM
O=C(N[C@H](c1cn2nc(C[C@H]3C[C@H](C(F)(F)F)CNC3=O)cnc2n1)C1CCC(F)(F)CC1)c1nonc1C1CC1	100 to 1000 nM
CC(C)n1nccc1C(=O)N[C@H](c1cn2nc(CC3C[C@@H](C(F)(F)F)CNC3=O)c(N3CCOCC3)nc2n1)C1CCC(F)(F)CC1 (single isomer, unassigned) [Compound 80]	< 100 nM
O=C(N[C@H](c1cn2nc(C[C@H]3C[C@@H](C(F)(F)F)CNC3=O)c(C3CCOC3)nc2n1)C1CCC(F)(F)CC1)c1nonc1C1CC1 (single isomer, unassigned) [Compound 135]	< 100 nM
CCn1nccc1C(=O)N[C@H](c1cn2nc(C[C@H]3C[C@@H](C(F)(F)F)CNC3=O)c(N(C)CC3(C)COC3)nc2n1)C1CCC(F)(F)CC1	100 to 1000 nM
O=C(N[C@H](c1cn2nc(C[C@H]3C[C@@H](C(F)(F)F)CNC3=O)c(C3CCOCC3)nc2n1)C1CCC(F)(F)CC1)c1nonc1C(F)F	< 100 nM
